# Tested on: histamine-induced skin reaction in mouse
# assay_explanation: Skin reaction test in mouse (Test Example 4)
# Format: in vivo
# conditions_used: oral, histamine 3 μg/50 μL/site intradermal, pigment area, read-out: Skin reaction test in mouse ID50
Strictly below 0.06 mg/kg in ED50: class 1. Otherwise: class 0.

A selection of reference data follows.
| molecule | class_name |
| --- | --- |
| O=C(O)c1cc(CN2CCC(OC(c3ccccc3)c3ccccc3)CC2)cs1 | class 0 |
| O=C(O)c1cccc(CN2CCN(C(c3ccc(F)cc3)c3ccc(F)cc3)CC2)n1 | class 1 |
| O=C(O)c1cccc(CN2CCC(OC(c3ccccc3)c3ccccc3)CC2)n1 | class 0 |
| O=C(O)c1ccnc(CN2CCC(OC(c3ccccc3)c3ccc(F)cc3)CC2)c1 (stereo not drawn) | class 1 |
| O=C(O)c1cccc(CN2CC[C@H](OC(c3ccccc3)c3ccccc3)C2)n1 | class 1 |

Req: Criterion: ED50 strictly below 0.06 mg/kg. Is it met by O=C(O)c1ccnc(CN2CCC(OC(c3ccccc3)c3ccc(F)c(F)c3)CC2)c1 (stereo not drawn) ?
Resp: class 0

Req: Another molecule: O=C(O)c1cccc(CN2CCC(OC(c3ccccc3)c3ccc(F)c(F)c3)CC2)n1 (stereo not drawn)
Resp: class 1

Source: patent US9365553B2
